- Protocol description: chemical genetic growth profiling, strain panel (AID 1159580);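 also: tested at 20 µM; growth read once vehicle control cultures reached saturation at 30 °C; 1 = growth at the plate median or of vehicle wells; lower values mean less growth of the strain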
- Measurement conditions: S. cerevisiae deletion strains, growth OD, locus YML070W, strain DAK1
Hit rate of the full screen: of about 5,500 compounds, about 2,000 (36%) were called active. Another 18% or so got no clear call; they are omitted. Rule as the data show it: active = normalized growth mostly below about 0.91 (no sharp cut-off); inconclusive = no clear call, values can overlap the other calls; inactive = mostly above about 0.92. This is one part of the list.
Would you mind answering with one of these outcomes? 1.0 (active), 0.0 (inactive)

Task: Please state the recorded outcome for this compound: O=[N+]([O-])c1ccc(-c2noc(-c3ccno3)n2)o1
Result: 1.0

Task: Please state the recorded outcome for this compound: O=C(/C=C/c1ccc2c(c1)OCO2)Nc1ccc(Br)cc1
Result: 0.0

Task: Please state the recorded outcome for this compound: N/C(Cn1ccc(C(F)(F)F)n1)=N/OS(=O)(=O)c1cccc(Cl)c1Cl
Result: 0.0

Task: Please state the recorded outcome for this compound: COc1cc(Cl)ccc1N/N=C(/C#N)C(N)=O
Result: 1.0
